These entries and their values trace back to patent US20260265244A1.

# MEASURED ON: cGAMP binding domain of wild-type (GRR) human STING, residues 155-341 (Homo sapiens, UniProt Q86WV6, H232R)
# Construct: His-TEV-hSTING (WT); TEV protease cleavage site (N); made in house; host or cells: E. coli BL21 DE3
# Sequence (Q86WV6 with tags, fused parts or gaps H232R): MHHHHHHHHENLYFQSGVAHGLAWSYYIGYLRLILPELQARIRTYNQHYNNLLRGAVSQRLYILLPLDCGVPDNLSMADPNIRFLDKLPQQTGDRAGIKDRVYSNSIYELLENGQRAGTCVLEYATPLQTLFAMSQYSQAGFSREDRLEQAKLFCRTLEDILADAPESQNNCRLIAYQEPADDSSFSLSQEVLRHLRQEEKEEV
# ASSAY NAME: Increase of stability of STING protein against thermal denaturation, Differential Scanning Fluorimetry (DSF)
MEASURED METRIC: DSF (K)
Number in K, nothing else.

Notebook: `Cc1nc2nn(C)cc2cc1-n1nc(-c2cccc3nn(C[C@H](OCF)c4ccccc4)cc23)c(C(C)C)c1C` , DSF read as 25

Notebook: `CC(C)c1nc2nn(C)cc2cc1-c1nc(-c2cccc3nn(C[C@H](O)c4ccccc4)cc23)c(C2CC2)n1C` , DSF read as 31

Notebook: `Cc1nc2nn(C)cc2cc1-n1nc(-c2cccc3nn(C[C@H](OCC4CC4)c4ccccc4)cc23)c(C(C)C)c1C` , DSF read as 22

Notebook: `Cc1nc2nn(C)cc2cc1-n1nc(-c2cccc3nn(C[C@H](OCCO)c4ccccc4)cc23)c(C(C)C)c1C` , DSF read as 24

Notebook: `Cc1nc2nn(C)cc2cc1-n1nc(-c2cccc3nn(C[C@H](O)c4ccccc4)cc23)c(C(C)C)c1C` , DSF read as 28

Notebook: `CC(C)n1cc2cc(-c3nc(-c4cccc5nn(C[C@H](O)c6ccccc6)cc45)c(C4CC4)n3C)c(C3CC3)nc2n1` , DSF read as 31

Notebook: `Cc1c(C(C)C)c(-c2cccc3nn(C[C@H](O)c4ccccc4)cc23)nn1-c1cc2cn(C)nc2nc1C(F)F` , DSF read as 26

---

# MEASURED ON: human STING WT (R232) (Homo sapiens, UniProt Q86WV6, H232R)
# Sequence (Q86WV6 138-379 H232R): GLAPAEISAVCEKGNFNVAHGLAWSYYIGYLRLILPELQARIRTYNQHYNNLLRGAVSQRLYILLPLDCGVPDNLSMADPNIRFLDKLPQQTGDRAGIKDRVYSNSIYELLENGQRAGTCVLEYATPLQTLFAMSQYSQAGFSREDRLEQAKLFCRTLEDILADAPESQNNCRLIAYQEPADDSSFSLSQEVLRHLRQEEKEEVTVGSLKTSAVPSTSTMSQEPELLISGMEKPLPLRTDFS
# ASSAY NAME: Human STING HTRF binding assay (competitive, Cisbio 64BDSTGPEG)
Please go through the items and note down their pIC50.
Note on units: pIC50 is unitless, being -log10 of a concentration expressed in mol/L.

The measured pIC50 that `Cn1cc2cc(-c3nc(-c4cccc5nn(C[C@H](O)c6ccccc6)cc45)c(C4CC4)n3C)c(OC(F)F)cc2n1` showed for human STING WT (R232) (Homo sapiens, UniProt Q86WV6, H232R) is 8.15

The measured pIC50 that `Cc1nc2nn(C)cc2cc1-n1nc(-c2cccc3nn(C[C@H](OCCC(C)(C)O)c4ccccc4)cc23)c(C(C)C)c1C` showed for human STING WT (R232) (Homo sapiens, UniProt Q86WV6, H232R) is 7.77

The measured pIC50 that `Cc1nc2nn(CCCC#N)cc2cc1-n1nc(-c2cccc3nn(C[C@H](O)c4ccccc4)cc23)c(C(C)C)c1C` showed for human STING WT (R232) (Homo sapiens, UniProt Q86WV6, H232R) is 7.80

The measured pIC50 that `CC(C)n1cc2cc(-c3nc(-c4cccc5nn(C[C@H](O)c6ccccc6)cc45)c(C4CC4)n3C)c(C3CC3)nc2n1` showed for human STING WT (R232) (Homo sapiens, UniProt Q86WV6, H232R) is 8.21

The measured pIC50 that `Cc1nc2nn(CCCN3CCN(C)CC3)cc2cc1-n1nc(-c2cccc3nn(C[C@H](O)c4ccccc4)cc23)c(C(C)C)c1C` showed for human STING WT (R232) (Homo sapiens, UniProt Q86WV6, H232R) is 7.61

The measured pIC50 that Cc1c(C(C)C)c(-c2cccc3nn(C[C@H](O)c4ccccc4)cc23)nn1-c1cc2cn(C)nc2nc1C1CCOC1 (some centres unmarked) showed for human STING WT (R232) (Homo sapiens, UniProt Q86WV6, H232R) is 7.92

The measured pIC50 that `Cc1nc2nn(C)cc2cc1-n1nc(-c2cccc3nn(C[C@H](OCCF)c4ccccc4)cc23)c(C(C)C)c1C` showed for human STING WT (R232) (Homo sapiens, UniProt Q86WV6, H232R) is 7.78

The measured pIC50 that Cc1nc2nn(CC(O)CO)cc2cc1-n1nc(-c2cccc3nn(C[C@H](O)c4ccccc4)cc23)c(C(C)C)c1C (some centres unmarked) showed for human STING WT (R232) (Homo sapiens, UniProt Q86WV6, H232R) is 7.97

The measured pIC50 that `Cc1nc2nn(CCO)cc2cc1-n1nc(-c2cccc3nn(C[C@H](O)c4ccccc4)cc23)c(C(C)C)c1C` showed for human STING WT (R232) (Homo sapiens, UniProt Q86WV6, H232R) is 8.26

The measured pIC50 that Cc1c(C(C)C)c(-c2cccc3nn(C[C@H](O)c4ccccc4)cc23)nn1-c1cc2cn(C)nc2nc1C1CCCN1 (some centres unmarked) showed for human STING WT (R232) (Homo sapiens, UniProt Q86WV6, H232R) is 7.60

The measured pIC50 that `Cn1c(-c2cc3cn(CCN4CCOCC4)nc3nc2C2CC2)nc(-c2cccc3nn(C[C@H](O)c4ccccc4)cc23)c1C1CC1` showed for human STING WT (R232) (Homo sapiens, UniProt Q86WV6, H232R) is 8.03

The measured pIC50 that `C=CCO[C@@H](Cn1cc2c(-c3nn(-c4cc5cn(C)nc5nc4C)c(C)c3C(C)C)cccc2n1)c1ccccc1` showed for human STING WT (R232) (Homo sapiens, UniProt Q86WV6, H232R) is 7.70

The measured pIC50 that `Cc1nc2nn(C)cc2cc1-n1nc(-c2cccc3nn(C[C@H](OCF)c4ccccc4)cc23)c(C(C)C)c1C` showed for human STING WT (R232) (Homo sapiens, UniProt Q86WV6, H232R) is 7.84

The measured pIC50 that `Cn1cc2cc(-c3nc(-c4cccc5nn(C[C@H](O)c6ccc(OCC7CCOCC7)cc6)cc45)c(C4CC4)n3C)c(C3CC3)nc2n1` showed for human STING WT (R232) (Homo sapiens, UniProt Q86WV6, H232R) is 7.75

---

Please go through the items and note down their pIC50.
# MEASURED ON: human STING WT (R232) (Homo sapiens, UniProt Q86WV6, H232R)
# Construct: purchased Cisbio 64BDSTGPEG
# ASSAY NAME: Human STING HTRF binding assay (competitive, Cisbio 64BDSTGPEG)
Note on units: pIC50 is unitless, being -log10 of a concentration expressed in mol/L.

Notebook: `Cc1nc2nn(CCN(C)C)cc2cc1-n1nc(-c2cccc3nn(C[C@H](O)c4ccccc4)cc23)c(C(C)C)c1C` , pIC50 read as 7.81

Notebook: COC(C)c1nc2nn(C)cc2cc1-n1nc(-c2cccc3nn(C[C@H](O)c4ccccc4)cc23)c(C(C)C)c1C (stereo partly shown) [Example 75] , pIC50 read as 8.01

Notebook: Cc1nc2nn(CC(O)CN3CCN(C)CC3)cc2cc1-n1nc(-c2cccc3nn(C[C@H](O)c4ccccc4)cc23)c(C(C)C)c1C (stereo partly shown) , pIC50 read as 7.42

Notebook: `Cc1nc2nn(C)cc2cc1-n1nc(-c2cccc3nn(C[C@H](O)c4ccccc4)cc23)c(C2(C)CC2)c1C` , pIC50 read as 8.37

Notebook: `Cc1c(C(C)C)c(-c2cccc3nn(C[C@H](O)c4ccccc4)cc23)nn1-c1cc2cn(C)nc2nc1C(C)(C)C` , pIC50 read as 7.20

Notebook: `Cc1c(C2CC2)c(-c2cccc3nn(C[C@H](O)c4ccccc4)cc23)nn1-c1cc2cn(C)nc2nc1C1CC1` , pIC50 read as 8.55

Notebook: `Cc1nc2nn(CCCN3CCC(F)(F)C3)cc2cc1-n1nc(-c2cccc3nn(C[C@H](O)c4ccccc4)cc23)c(C(C)C)c1C` , pIC50 read as 7.55

---

Please go through the items and note down their DSF.
# MEASURED ON: cGAMP binding domain of wild-type (GRR) human STING, residues 155-341 (Homo sapiens, UniProt Q86WV6, H232R)
# Construct: His-TEV-hSTING (WT); TEV protease cleavage site (N); made in house; host or cells: E. coli BL21 DE3
# ASSAY NAME: Increase of stability of STING protein against thermal denaturation, Differential Scanning Fluorimetry (DSF)
Number in K, nothing else.

Notebook: `Cc1c(C(C)C)c(-c2cccc3nn(C[C@H](O)c4ccccc4)cc23)nn1-c1cc2cn(C)nc2nc1CN1CCOCC1` , DSF read as 26

Notebook: `CSc1nc2nn(C)cc2cc1-n1nc(-c2cccc3nn(C[C@H](O)c4ccccc4)cc23)c(C(C)C)c1C` , DSF read as 27

Notebook: `Cc1nc2nn(C)cc2cc1-n1nc(-c2cccc3nn(C[C@H](OCC(N)=O)c4ccccc4)cc23)c(C(C)C)c1C` , DSF read as 27

Notebook: `Cc1ccc([C@@H](O)Cn2cc3c(-c4nc(-c5cc6cn(C)nc6nc5C(C)C)n(C)c4C4CC4)cccc3n2)cc1` , DSF read as 30
